test system: ATP; test: switch fluorescence ratio, 500 uM ATP over buffer (Cy3 cluster intensity, sum of 5 cycles each) (fold (ratio)); higher = stronger signal-on switching upon ATP binding; sequences stand for … in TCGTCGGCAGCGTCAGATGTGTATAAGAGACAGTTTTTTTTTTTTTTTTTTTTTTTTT…TC; details: aptamer strand: ATP DNA aptamer (quencher-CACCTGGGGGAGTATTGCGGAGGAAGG + anchor), 100 nM annealed; ATP concentration: 500 uM;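 also: ATP exposure 15 min at 22 °C before imaging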
Quick rule: switch fluorescence ratio of at least 1 means MET, below that means NOT MET.

Completed entries (count: 4):
| SEQ_STRING | QUALITATIVE_LABEL |
| --- | --- |
| CCCTTTTTTT | MET |
| TACGAACTTT | MET |
| TGCTTCGGGA | MET |
| ACTGGGGGCG | MET |

# input Could you tell me if the measured switch fluorescence ratio of CTAAGAGCGC reaches 1 or more?
# output MET

# input Could you tell me if the measured switch fluorescence ratio of TAATTTGAGG reaches 1 or more?
# output NOT MET

# input Could you tell me if the measured switch fluorescence ratio of TAAAACGCGG reaches 1 or more?
# output MET

# input Could you tell me if the measured switch fluorescence ratio of TTTCAAAGGC reaches 1 or more?
# output MET

# input Could you tell me if the measured switch fluorescence ratio of AAGCGGGGGG reaches 1 or more?
# output MET

# input Could you tell me if the measured switch fluorescence ratio of ACGTTATTTT reaches 1 or more?
# output MET

# input Could you tell me if the measured switch fluorescence ratio of TGAGCCCACG reaches 1 or more?
# output MET

# input Could you tell me if the measured switch fluorescence ratio of GTGTTATCGT reaches 1 or more?
# output NOT MET

# input Could you tell me if the measured switch fluorescence ratio of TAAGTACCGG reaches 1 or more?
# output MET

# input Could you tell me if the measured switch fluorescence ratio of GGCCCGTTAC reaches 1 or more?
# output MET

# input Could you tell me if the measured switch fluorescence ratio of GGGGTGTCGG reaches 1 or more?
# output MET

# input Could you tell me if the measured switch fluorescence ratio of GAAACGAAGG reaches 1 or more?
# output NOT MET

# input Could you tell me if the measured switch fluorescence ratio of CGGTGGCTCC reaches 1 or more?
# output MET

Reference source: the supplement of paper PMC10126150
